method: Cytotoxicity against mouse RAW264.7 cells assessed as reduction in cell viability incubated for 3 days by MTS assay
Assay type: cell-based
run conditions: time 3 day
Provide the reported CC50 at 72 h of each item.

Fill blank: measured CC50 at 72 h of the molecule Nc1ncnn2c([C@@H]3O[C@H](CO)[C@@H](O)[C@H]3O)ccc12 is ____.
0.14 µM

Fill blank: measured CC50 at 72 h of the molecule Nc1ncnn2c([C@H]3O[C@@H](CO)[C@H](O)[C@@H]3O)cc(Cl)c12 is ____.
> 100 µM

Fill blank: measured CC50 at 72 h of the molecule Nc1ncnn2c([C@@H]3O[C@H](CO)[C@@H](O)[C@H]3O)cc(Cl)c12 is ____.
> 0.01 µM

Fill blank: measured CC50 at 72 h of the molecule C[C@H](NP(=O)(N[C@@H](C)C(=O)OCc1ccccc1)OC[C@H]1O[C@@H](c2cc(Cl)c3c(N)ncnn23)[C@H](O)[C@@H]1O)C(=O)OCc1ccccc1 is ____.
> 10 µM

Fill blank: measured CC50 at 72 h of the molecule Nc1ncnn2c([C@H]3O[C@@H](CO)[C@H](O)[C@@H]3O)ccc12 is ____.
> 100 µM

###

Provide the reported selectivity ratio of each item.
method: Selectivity index, ratio of CC50 for mouse RAW264.7 cells to EC50 for antiviral activity against murine Norovirus infected in mouse RAW264.7 cells
Format: toxicity, cell-based
run conditions: read-out: Ratio CC50/EC50

Fill blank: measured selectivity ratio of the compound Nc1ncnn2c([C@@H]3O[C@H](CO)[C@@H](O)[C@H]3O)cc(Cl)c12 is ____.
> 1

Fill blank: measured selectivity ratio of the compound Nc1ncnn2c([C@@H]3O[C@H](CO)[C@@H](O)[C@H]3O)ccc12 is ____.
20

Fill blank: measured selectivity ratio of the compound C[C@@]1(O)[C@H](O)[C@@H](CO)O[C@H]1c1ccc2c(N)ncnn12 is ____.
2

Fill blank: measured selectivity ratio of the compound Nc1ncnn2c([C@@H]3O[C@H](CO)[C@@H](O)[C@H]3O)cc(Br)c12 is ____.
19

Fill blank: measured selectivity ratio of the compound Nc1ncnn2c([C@@H]3O[C@H](CO)[C@@H](O)[C@H]3O)cc(I)c12 is ____.
22

###

method: Cytotoxicity against mouse RAW264.7 cells assessed as reduction in cell viability incubated for 3 days by MTS assay
Assay type: cell-based
run conditions: time 3 day
quantity: CC50 at 72 h

Fill blank: measured CC50 at 72 h of the molecule Nc1ncnn2c([C@@H]3O[C@H](CO)[C@@H](O)[C@H]3O)cc(Br)c12 is ____.
450 nM

Fill blank: measured CC50 at 72 h of the molecule Nc1ncnn2c([C@@H]3O[C@H](CO)[C@@H](O)[C@H]3O)cc(I)c12 is ____.
780 nM

Fill blank: measured CC50 at 72 h of the molecule Nc1ncnc2c1c(Cl)cn2[C@@H]1O[C@H](CO)[C@@H](O)[C@H]1O is ____.
2530 nM

Fill blank: measured CC50 at 72 h of the molecule C[C@@]1(O)[C@H](O)[C@@H](CO)O[C@H]1c1cc(Cl)c2c(N)ncnn12 is ____.
4780 nM

Fill blank: measured CC50 at 72 h of the molecule C[C@@]1(O)[C@H](O)[C@@H](CO)O[C@H]1c1ccc2c(N)ncnn12 is ____.
23700 nM
